tested on: OVCAR-3 ovarian; assay: NCI-60 one-dose screen, 48 h (100 = growth as untreated, 0 = no growth, -100 = all killed); details: 10 µM unless noted
The panel holds about 83,000 compounds, 20% with a hit somewhere; the sample as a whole holds those more often.
API: label(entry) gives Criterion met if the entry's growth is strictly smaller than 90%; on equality or larger values it gives Criterion not met.

Input: Consider the compound O=c1[nH]c2ccccc2cc1-c1nnc(Cc2ccccc2)o1 . Is its growth strictly less than 90%?
Output: Criterion met

Input: Consider the compound O=C(CNC1CCCCC1)Nc1ccc(-c2nc3ccccc3s2)cc1 . Is its growth strictly less than 90%?
Output: Criterion not met

Input: Consider the compound O=C(CN1CCN(c2cc3c(cc2F)c(=O)c(C(=O)O)cn3C2CC2)CC1)Nc1ccc(C(=O)/C=C/c2ccc(Cl)cc2)cc1 . Is its growth strictly less than 90%?
Output: Criterion not met

Input: Consider the compound COc1ncc(-c2ccc3ncnc(Nc4cccc(Cl)c4)c3c2)cc1NS(=O)(=O)C1CC1 . Is its growth strictly less than 90%?
Output: Criterion met

Input: Consider the compound CCC(c1ccc(OC)cc1)C(CC)c1ccc(OCC[N+](C)(C)C)cc1 (configuration not stated) . Is its growth strictly less than 90%?
Output: Criterion met

Input: Consider the compound COc1cc(OC)c(C(=O)/C=C/c2cccc(C#N)c2)c(OC)c1 . Is its growth strictly less than 90%?
Output: Criterion met

Input: Consider the compound CCOC(=O)c1ccccc1NC(c1ccccc1)c1ccc2cccnc2c1O (configuration not stated) . Is its growth strictly less than 90%?
Output: Criterion met

Input: Consider the compound Cc1ccc(Cn2c(-c3cccs3)nc3ccccc32)cc1 . Is its growth strictly less than 90%?
Output: Criterion not met

Input: Consider the compound Cc1ccc2nc(-c3c(N)n[nH]c3CCCO)[nH]c(=O)c2c1 . Is its growth strictly less than 90%?
Output: Criterion not met

Input: Consider the compound NC(=O)c1ccc2c(c1)OCO2 . Is its growth strictly less than 90%?
Output: Criterion not met

Input: Consider the compound CCCCCCCCCCC/C=C\C[C@H](O)C/C=C1/C(=O)C=C[C@@H]1C/C=C\CCCC(=O)OC . Is its growth strictly less than 90%?
Output: Criterion met

Input: Consider the compound COc1ccc([N+](=O)[O-])c(/C=C/C(=O)c2ccccn2)c1 . Is its growth strictly less than 90%?
Output: Criterion met

Input: Consider the compound O=C1CCCCN1CCCCC#Cc1ccccc1C#Cc1ccc([N+](=O)[O-])cc1 . Is its growth strictly less than 90%?
Output: Criterion met

Input: Consider the compound CCN(C(=O)c1cc2ncccc2[nH]1)[C@H]1CCC[C@@H](NCc2cccc(F)c2)C1 . Is its growth strictly less than 90%?
Output: Criterion not met

Input: Consider the compound COc1cc(C2C3=C(COC3=O)Nc3c2ccc2c3CCCC2)cc2c1OCO2 (configuration not stated) . Is its growth strictly less than 90%?
Output: Criterion met

Input: Consider the compound O=C(Nc1ccc(F)c(Cl)c1)c1n[nH]c(=O)c2ccccc12 . Is its growth strictly less than 90%?
Output: Criterion not met

Input: Consider the compound Cc1ccc(C2=NN(c3ccc(S(N)(=O)=O)cc3)C(c3cn(-c4ccccc4)nc3-c3ccccc3)C2)cc1 (configuration not stated) . Is its growth strictly less than 90%?
Output: Criterion met

Input: Consider the compound O=C(O)C(=Cc1c2ccccc2cc2ccccc12)C(=O)O . Is its growth strictly less than 90%?
Output: Criterion not met

Input: Consider the compound CCCCNc1nnc(-c2cc(-c3cc4ccccc4o3)nn2-c2ccccc2)o1 . Is its growth strictly less than 90%?
Output: Criterion met

Input: Consider the compound CC(CCc1ccccc1)NC(=O)c1n[nH]c(=O)c2ccccc12 (configuration not stated) . Is its growth strictly less than 90%?
Output: Criterion not met

Input: Consider the compound COc1ccc(C(=O)/C=C/c2ccc(/C=C/c3cc(OC)c(OC)c(OC)c3)cc2)cc1 . Is its growth strictly less than 90%?
Output: Criterion met

Input: Consider the compound COc1ccc(/C=C2\Oc3cc(OCCN4CCCC4)ccc3C2=O)c(OC)c1 . Is its growth strictly less than 90%?
Output: Criterion not met

Input: Consider the compound Nc1nn2cc(-c3ccc(Cl)s3)nc2c2ccccc12 . Is its growth strictly less than 90%?
Output: Criterion met

Input: Consider the compound c1cncc(CNc2ccccc2-c2nnc(Nc3ccc4c(c3)OCCO4)o2)c1 . Is its growth strictly less than 90%?
Output: Criterion met

Input: Consider the compound CC(C)(C)c1ccc(S(=O)(=O)Oc2ccc3c4c(c(=O)oc3c2)CCCCC4)cc1 . Is its growth strictly less than 90%?
Output: Criterion met

Input: Consider the compound CN1CCN(CCCOc2ccc3nc(Nc4ccc(C(F)(F)F)c(Cl)c4)ccc3c2)CC1 . Is its growth strictly less than 90%?
Output: Criterion met

Input: Consider the compound CC1=NN2C(=NC3=C(CCC/C3=C\c3ccc(Cl)cc3)C2c2ccc(Cl)cc2)S1 (configuration not stated) . Is its growth strictly less than 90%?
Output: Criterion not met

Input: Consider the compound COc1ccc(-n2c(C)cc(-c3ccccc3)c2C)cc1 . Is its growth strictly less than 90%?
Output: Criterion met

Input: Consider the compound COc1ccc(-c2cn[nH]c2-c2cc(OC)c3c(c2)OCCO3)cc1 . Is its growth strictly less than 90%?
Output: Criterion met

Input: Consider the compound Cc1cnc(NC(=O)C(Cc2ccccc2)NC(=O)c2ccccc2)s1 (configuration not stated) . Is its growth strictly less than 90%?
Output: Criterion met

Input: Consider the compound CCN1C(=O)/C(=c2\sc3n(c2=O)C2C(NN=3)N(CC)C(=S)N2CC)c2ccccc21 (configuration not stated) . Is its growth strictly less than 90%?
Output: Criterion not met

Input: Consider the compound CCOC(=O)/C=C\C(=O)NC(N)=O . Is its growth strictly less than 90%?
Output: Criterion not met

Input: Consider the compound C#CCN1C(=O)/C(=c2\sc3n(c2=O)C2C(NN=3)N(CC)C(=O)N2CC)c2ccccc21 (configuration not stated) . Is its growth strictly less than 90%?
Output: Criterion met

Input: Consider the compound O=C(CNc1ccc(Cl)cc1)Nc1ccc(-c2nc3ccccc3s2)cc1 . Is its growth strictly less than 90%?
Output: Criterion met

Input: Consider the compound COc1ccc(Cn2c(SC)nc(=O)n(Cc3ccc(Cl)cc3)c2=O)cc1 . Is its growth strictly less than 90%?
Output: Criterion not met

Input: Consider the compound COc1ccc(S(=O)(=O)N2CCN(c3cc4c(cc3F)c(=O)c(C(=O)O)cn4C3CC3)CC2)c(OC)c1 . Is its growth strictly less than 90%?
Output: Criterion not met

Input: Consider the compound CC(=O)c1cc(C(=O)c2ccc3c(c2)Sc2ccccc2N3)c2cc(C)ccn12 . Is its growth strictly less than 90%?
Output: Criterion met

Input: Consider the compound N#CC1=C(N)n2nc(-c3ccncc3)nc2NC1c1cccc2ccccc12 (configuration not stated) . Is its growth strictly less than 90%?
Output: Criterion not met

Input: Consider the compound N#CC1=C(N)OC2=C(C(=O)CCC2)C1c1ccco1 (configuration not stated) . Is its growth strictly less than 90%?
Output: Criterion not met

Input: Consider the compound Nc1c(C(=O)Nc2cccc(C(F)(F)F)c2)sc2nc3c(cc12)C(O)CCC3 (configuration not stated) . Is its growth strictly less than 90%?
Output: Criterion met
